- experimentDescription: equilibrium solubility experiments in buffer media at different pH conditions
- Assay type: physicochemical
- appliedConditions: buffer media, pH 6.8, aqueous buffer, thermodynamic from solid, pH 6.8 buffer, 1 h
propertyLabel: solubility at 1 h (µg/mL)

- Cc1nnc(-c2cc(C(=O)N3CCC(c4ccc(C#N)cc4)CC3)c(C)cc2C2CCC2)[nH]1: 0.44

====

- experimentDescription: equilibrium solubility experiments in buffer media at different pH conditions
- Assay type: physicochemical
- appliedConditions: buffer media, pH 5, aqueous buffer, thermodynamic from solid, pH 5.0 buffer, 1 h
propertyLabel: solubility at 1 h (µg/mL)

- Cc1nnc(-c2cc(C(=O)N3CCC(c4ccc(C#N)cc4)CC3)c(C)cc2C2CCC2)[nH]1: 0.47
